# testMethodNotes: Clearance in ICR mouse at 2 mg/kg, iv after 24 hrs by LC-MS/MS analysis
# Assay type: ADME, organism-based
# testSettings: in vivo
measurementType: clearance (mL/min/kg)
Kindly provide the numeric value in mL/min/kg only, without the unit symbol.

Given the entry `N#Cc1ccc(NC(=O)NCc2csc(/C(=N/O)Nc3cccc(Br)c3)c2)cc1` , report its measured clearance. 90

----------
# testMethodNotes: Drug concentration in human SK-OV-3 xenografted in CB17-SCID mouse tumor at 100 mg/kg, po measured after 6 hrs by LC-MS/MS analysis
# Type: ADME, organism-based
measurementType: concentration at 6 h (ng/mL)
Kindly provide the numeric value in ng/mL only, without the unit symbol.

Given the entry `N#Cc1ccc(NC(=O)NCc2csc(/C(=N/O)Nc3cccc(Br)c3)c2)cc1` , report its measured concentration at 6 h. 694

Measured values drawn from ChEMBL document CHEMBL5042499 for this set.
